Read-out: X-box binding protein 1 (XBP1), XBP1 (gene 7494)
Assay: LTEA_HepaRG_XBP1: Life Technologies and Expression Analysis (LTEA) Assay for X-box binding protein 1 (XBP1) using HepaRG (AID 2283540)
Conditions: mRNA level, 48 h; actives raise or lower the signal
Activity calls are given as the source filed them. How the source made its calls: active means hit-call score of the fitted dose curve at least 0.9, where 1 is the maximum; inactive means score below 0.9.
Could you please pick one outcome from this set? 1.0 (active), 0.0 (inactive)

Request: What is the recorded call for this molecule in the test? C=CC(=O)OCCCCCC(C)C
Response: 0.0

Request: What is the recorded call for this molecule in the test? CCC(C)(C)c1ccc(O)c(C(C)(C)CC)c1
Response: 0.0

Request: What is the recorded call for this molecule in the test? CCN1CCC2(CC1)COc1cc3c(cc12)N(C(=O)c1ccc(-c2ccc(-c4nnc(C)o4)cc2C)cc1)CC3
Response: 1.0

Request: What is the recorded call for this molecule in the test? CN(C)N=O
Response: 0.0

Request: What is the recorded call for this molecule in the test? ClCC(Cl)CCl
Response: 0.0

Request: What is the recorded call for this molecule in the test? Oc1cccc2cccnc12
Response: 0.0

Request: What is the recorded call for this molecule in the test? CC(C)(OO)c1ccccc1
Response: 0.0

Request: What is the recorded call for this molecule in the test? CC(=O)[O][Hg][c]1ccccc1
Response: 1.0

Request: What is the recorded call for this molecule in the test? CCOP(=S)(OCC)SCSP(=S)(OCC)OCC
Response: 1.0

Request: What is the recorded call for this molecule in the test? Cn1sc(Cl)cc1=O
Response: 0.0

Request: What is the recorded call for this molecule in the test? C[C@]12CCC(=O)C[C@@H]1CC[C@@H]1[C@@H]2CC[C@]2(C)[C@@H](O)CC[C@@H]12
Response: 0.0

----------
Target: Nucleoli Translocation, AR (gene 367) (UniProt P10275)
Sequence (P10275 whole entry, looked up): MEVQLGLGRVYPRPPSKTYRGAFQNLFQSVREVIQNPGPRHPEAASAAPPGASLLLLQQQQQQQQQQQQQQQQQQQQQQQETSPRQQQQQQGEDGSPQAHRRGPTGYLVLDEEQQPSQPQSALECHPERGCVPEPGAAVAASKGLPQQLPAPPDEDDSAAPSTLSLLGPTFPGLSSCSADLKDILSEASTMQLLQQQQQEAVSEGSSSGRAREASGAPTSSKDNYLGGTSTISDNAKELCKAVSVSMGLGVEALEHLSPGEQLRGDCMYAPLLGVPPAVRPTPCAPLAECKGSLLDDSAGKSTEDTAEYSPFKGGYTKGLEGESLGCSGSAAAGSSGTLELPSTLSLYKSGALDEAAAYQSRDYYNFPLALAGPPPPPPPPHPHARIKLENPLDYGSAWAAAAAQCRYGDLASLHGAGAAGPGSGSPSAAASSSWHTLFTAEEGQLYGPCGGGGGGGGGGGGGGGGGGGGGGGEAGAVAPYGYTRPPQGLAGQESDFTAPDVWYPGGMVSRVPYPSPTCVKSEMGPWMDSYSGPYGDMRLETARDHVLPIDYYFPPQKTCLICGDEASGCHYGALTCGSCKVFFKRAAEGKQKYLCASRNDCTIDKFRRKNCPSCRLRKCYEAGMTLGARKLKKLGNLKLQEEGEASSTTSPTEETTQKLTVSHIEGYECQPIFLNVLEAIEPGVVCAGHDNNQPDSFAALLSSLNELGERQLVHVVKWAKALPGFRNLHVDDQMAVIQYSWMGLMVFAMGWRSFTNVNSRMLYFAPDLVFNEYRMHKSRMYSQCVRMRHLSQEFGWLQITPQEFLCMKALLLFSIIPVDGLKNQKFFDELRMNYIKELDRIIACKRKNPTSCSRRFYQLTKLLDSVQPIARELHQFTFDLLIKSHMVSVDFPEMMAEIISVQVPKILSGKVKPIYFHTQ
Assay: UPITT_HCI_U2OS_AR_TIF2_Nucleoli_Antagonist: University of Pittsburgh U2OS Androgen Receptor-Transcriptional Intermediary Factor 2 (AR-TIF2) Antagonism High Content Imaging Assay for Nucleoli Translocation (AID 2283997)
Inconclusive results are not listed. The source made the active and inactive calls. Rule for the calls: active = hit-call score of the fitted dose curve at least 0.9, where 1 is the maximum; inconclusive = response in the unintended direction; inactive = score below 0.9.
Could you please pick one outcome from this set? active, inactive

Request: What is the recorded call for this compound in the test? CC(C)c1cccc(C(C)C)c1O
Response: inactive

Request: What is the recorded call for this compound in the test? C[C@H]1CCCC(=O)CCC/C=C/c2cc(O)cc(O)c2C(=O)O1
Response: active

Request: What is the recorded call for this compound in the test? Cc1ccc2ccccc2c1C
Response: inactive

Request: What is the recorded call for this compound in the test? C=CCc1ccc(OC)cc1
Response: inactive

----------
Read-out: Interferon-gamma inducible Protein 10 (IP10), CXCL10 (gene 3627)
Test: BSK_KF3CT_IP10: BioMAP Diversity Plus: KF3CT Assay for Interferon-gamma inducible Protein 10 (IP10) Biomarker Activity (AID 2283068)
Conditions: primary human keratinocytes with fibroblasts; actives raise or lower the signal
Activity calls are given as the source filed them. How the source made its calls: active means hit-call score of the fitted dose curve at least 0.9, where 1 is the maximum; inactive means score below 0.9.
Could you please pick one outcome from this set? active, inactive

Use these answered entries as a reference point.
{"COMPOUND": "CC(=O)[O][Hg][c]1ccccc1", "LABEL": "active"}
{"COMPOUND": "CN(C)N=O", "LABEL": "inactive"}
{"COMPOUND": "Nc1ncc([N+](=O)[O-])s1", "LABEL": "inactive"}

Request: What is the recorded call for this compound in the test? ClC1=C(Cl)[C@]2(Cl)[C@H]3[C@H]([C@H]4C=C[C@H]3C4)[C@@]1(Cl)C2(Cl)Cl
Response: inactive

Request: What is the recorded call for this compound in the test? Cn1sc(Cl)cc1=O
Response: inactive

Request: What is the recorded call for this compound in the test? OCc1ccco1
Response: inactive

Request: What is the recorded call for this compound in the test? CCCCCCCCC(=O)NCc1ccc(O)c(OC)c1
Response: inactive

Request: What is the recorded call for this compound in the test? CCCCC(CC)CO[N+](=O)[O-] (centres undefined)
Response: active

Request: What is the recorded call for this compound in the test? O=C(O)C(Cl)(Cl)Cl
Response: inactive
